The reported numbers originate from patent US20110207726A1.

biological target: human liver cathepsin L (Homo sapiens, UniProt P07711); construct: 8.7 ng/mL human liver cathepsin L (Calbiochem 219402); purchased Calbiochem 219402; host or cells: human liver; assay: Cathepsin L assay, IC50 determination; assay type: biochemical; conditions: Cathepsin L, human liver; no preincubation; 30 min; read-out: IC50 @ 30 min
Sequence (P07711 114-288 limits assumed): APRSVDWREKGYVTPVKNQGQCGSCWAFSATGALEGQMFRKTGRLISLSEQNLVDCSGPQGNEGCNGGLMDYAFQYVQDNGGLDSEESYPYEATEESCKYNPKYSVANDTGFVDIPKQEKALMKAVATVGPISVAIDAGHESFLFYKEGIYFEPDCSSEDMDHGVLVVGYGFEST
Sequence (P07711 292-333 limits assumed): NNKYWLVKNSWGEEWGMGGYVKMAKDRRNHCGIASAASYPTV
readoutLabel: pIC50
Would you please state pIC50, meaning minus log10 of the concentration in mol/L, as a bare number?

INPUT: Can you share its pIC50? I mean this compound: CCc1ccccc1NC(=O)CSC(=O)NNC(=O)[C@H](Cc1c[nH]c2ccccc12)NC(=O)OC(C)(C)C [Compound No. 1]
OUTPUT: 7.12

* * *

Target: Human liver cathepsin B (Homo sapiens)
Construct: Human liver cathepsin B (Calbiochem 219362, 65 ng/mL); purchased Calbiochem 219362; host or cells: human liver
Experiment: Cathepsin B assay, IC50 determination
Assay type: biochemical
Details: Table 1; read-out: IC50 Cat B
Experimental: Human spleen cathepsin S (Calbiochem 219344, 40 ng/mL) was assayed using 15 microM Z-Phe-Arg-AMC substrate. Human liver cathepsin B (Calbiochem 219362, 65 ng/mL) was assayed using 15 microM Z-Arg-Arg-AMC substrate (Bachem I-1135). All reactions were performed in 20 mM sodium acetate buffer containing 1 mM EDTA and 5 mM cysteine, pH 5.5. […]
readoutLabel: log10 of IC50 (log10 of the value in µM)
Short version: log10 scale, IC50, µM.

Reference set (5 entries):
compound	log10 of IC50
CSCC[C@H](NC(=O)OC(C)(C)C)C(=O)NNC(=O)SCC(=O)N1CCc2ccccc2C1	0.36
CC(C)(C)OC(=O)N[C@@H](Cc1ccc(OCc2ccccc2)cc1)C(=O)NNC(=O)SCC(=O)Nc1ccccc1[N+](=O)[O-]	0.44
COC(=O)CSC(=O)NNC(=O)[C@H](Cc1c[nH]c2ccccc12)NC(=O)OC(C)(C)C	0.80
CCc1ccccc1NC(=O)CSC(=O)NNC(=O)[C@H](Cc1ncc[nH]1)NC(=O)OC(C)(C)C	1.14
CCc1ccccc1NC(=O)CSC(=O)NNC(=O)[C@H](CC(C)C)NC(=O)OC(C)(C)C	0.42

INPUT: Can you share its log10 of IC50? I mean this compound: CC(C)(C)OC(=O)N[C@@H](COCc1ccccc1)C(=O)NNC(=O)SCC(=O)N1CCc2ccccc2C1
OUTPUT: 0.97

INPUT: Can you share its log10 of IC50? I mean this compound: CC(C)(C)OC(=O)N[C@@H](Cc1ccc(OCc2ccccc2)cc1)C(=O)NNC(=O)SCC(=O)N1CCOc2ccccc21
OUTPUT: 0.48

INPUT: Can you share its log10 of IC50? I mean this compound: CC(C)(C)OC(=O)N[C@@H](Cc1c[nH]c2ccccc12)C(=O)NNC(=O)SCC(=O)N1CCCc2ccccc21
OUTPUT: 0.65

INPUT: Can you share its log10 of IC50? I mean this compound: CCc1ccccc1NC(=O)CSC(=O)NNC(=O)[C@H](Cc1ccc(OCc2ccccc2)cc1)NC(=O)OC(C)(C)C
OUTPUT: 0.71

INPUT: Can you share its log10 of IC50? I mean this compound: CC(C)(C)OC(=O)N[C@@H](COCc1ccccc1)C(=O)NNC(=O)SCC(=O)N1CCCc2ccccc21
OUTPUT: 1.12

INPUT: Can you share its log10 of IC50? I mean this compound: CC(C)[C@H](NC(=O)OC(C)(C)C)C(=O)NNC(=O)SCC(=O)N1CCc2ccccc21
OUTPUT: -0.36

INPUT: Can you share its log10 of IC50? I mean this compound: CSCC[C@H](NC(=O)OC(C)(C)C)C(=O)NNC(=O)SCC(=O)NCCc1c[nH]c2ccccc12
OUTPUT: 0.38

INPUT: Can you share its log10 of IC50? I mean this compound: CCc1ccccc1NC(=O)CSC(=O)NNC(=O)[C@@H](NC(=O)OC(C)(C)C)C(C)C
OUTPUT: -0.06

INPUT: Can you share its log10 of IC50? I mean this compound: CC(C)(C)OC(=O)N[C@@H](Cc1c[nH]c2ccccc12)C(=O)NNC(=O)SCC(=O)N1CCOc2ccccc21
OUTPUT: 0.51

INPUT: Can you share its log10 of IC50? I mean this compound: CC(OCc1ccccc1)[C@H](NC(=O)OC(C)(C)C)C(=O)NNC(=O)SCC(=O)N1CCCc2ccccc21 (some centres unmarked)
OUTPUT: 0.64

* * *

target: Human spleen cathepsin S (Homo sapiens, UniProt P25774); construct: Human spleen cathepsin S (Calbiochem 219344, 40 ng/mL); purchased Calbiochem 219344; host or cells: human spleen; test: Cathepsin S assay, IC50 determination; type: biochemical; details: IC50 @ 10 min, Cathepsin S, human spleen; no preincubation; 10 min
Sequence (P25774 115-331): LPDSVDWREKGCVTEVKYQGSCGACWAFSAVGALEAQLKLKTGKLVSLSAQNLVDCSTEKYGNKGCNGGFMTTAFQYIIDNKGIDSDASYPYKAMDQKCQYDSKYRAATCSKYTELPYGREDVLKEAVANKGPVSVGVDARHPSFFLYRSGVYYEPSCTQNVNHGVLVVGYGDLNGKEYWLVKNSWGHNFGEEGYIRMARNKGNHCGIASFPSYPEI
readoutLabel: IC50 (µM)
The reply should contain only the number, in µM.

INPUT: Can you share its IC50? I mean this molecule: CCc1ccccc1NC(=O)CSC(=O)NNC(=O)[C@H](Cc1c[nH]c2ccccc12)NC(=O)OC(C)(C)C [Compound No. 1]
OUTPUT: 1.11

* * *

tested on: SARS coronavirus pseudotype; assay: microbe, parasite or virus in culture; type: cell-based; conditions: read-out: IC50, SARS-CoV pseudotype entry
readoutLabel: IC50

INPUT: Can you share its IC50? I mean this molecule: CC(C)(C)OC(=O)N[C@@H](Cc1c[nH]c2ccccc12)C(=O)NNC(=O)OCC(=O)N1CCCc2ccccc21
OUTPUT: ~200 nM

* * *

target: human liver cathepsin L (Homo sapiens); construct: 8.7 ng/mL human liver cathepsin L (Calbiochem 219402); purchased Calbiochem 219402; host or cells: human liver; assay: Cathepsin L assay, IC50 determination; type: biochemical; conditions: Cathepsin L, human liver; no preincubation; 60 min; read-out: IC50 @ 60 min
readoutLabel: pIC50
Would you please state pIC50, meaning minus log10 of the concentration in mol/L, as a bare number?

INPUT: Can you share its pIC50? I mean this molecule: CCc1ccccc1NC(=O)CSC(=O)NNC(=O)[C@H](Cc1c[nH]c2ccccc12)NC(=O)OC(C)(C)C
OUTPUT: 7.25

* * *

IC50 overview
target: Human liver cathepsin B (Homo sapiens); construct: Human liver cathepsin B (Calbiochem 219362, 65 ng/mL); purchased Calbiochem 219362; host or cells: human liver; test: Cathepsin B assay, IC50 determination; format: biochemical; conditions: Table 1; read-out: IC50 Cat B
The reply should contain only the number, in µM.

Reference set (5 entries):
compound	reading
CCc1ccccc1NC(=O)CSC(=O)NNC(=O)[C@H](Cc1c[nH]c2ccccc12)NC(=O)OC(C)(C)C [Compound No. 1]	4.45
CCc1ccccc1NC(=O)CSC(=O)NNC(=O)[C@H](COCc1ccccc1)NC(=O)OC(C)(C)C [Compound No. 46]	14.3
CC(C)(C)OC(=O)N[C@@H](Cc1c[nH]c2ccccc12)C(=O)NNC(=O)SCC(=O)NCCc1ccccc1 [Compound No. 7]	6.59
CC(C)(C)OC(=O)N[C@@H](Cc1ncc[nH]1)C(=O)NNC(=O)SCC(=O)N1CCCc2ccccc21 [Compound No. 66]	11.6
CC(C)(C)OC(=O)N[C@@H](COCc1ccccc1)C(=O)NNC(=O)SCC(=O)Nc1ccccc1[N+](=O)[O-] [Compound No. 55]	5.07

Continue with the next compound.
INPUT: Fill in the recorded IC50 for this compound, with Human liver cathepsin B (Homo sapiens) as test system: CSCC[C@H](NC(=O)OC(C)(C)C)C(=O)NNC(=O)SCC(=O)N1CCCc2ccccc21 [Compound No. 18]
OUTPUT: 2.21

* * *

biological target: human cathepsin V (Homo sapiens); construct: purchased Calbiochem 219467; assay: Selectivity assay, cathepsin V; format: biochemical; settings: Cathepsin V; no preincubation; 60 min; read-out: IC50 @ 60 min
Sequence (O60911 114-334): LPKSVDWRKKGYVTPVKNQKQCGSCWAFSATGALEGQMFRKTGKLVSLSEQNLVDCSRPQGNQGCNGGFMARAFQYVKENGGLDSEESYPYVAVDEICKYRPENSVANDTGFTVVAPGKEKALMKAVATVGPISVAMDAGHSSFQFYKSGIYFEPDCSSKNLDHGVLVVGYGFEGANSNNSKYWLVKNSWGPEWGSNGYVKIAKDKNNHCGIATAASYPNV
readoutLabel: IC50 (nM)
The reply should contain only the number, in nM.

INPUT: Can you share its IC50? I mean this molecule: CCc1ccccc1NC(=O)CSC(=O)NNC(=O)[C@H](Cc1c[nH]c2ccccc12)NC(=O)OC(C)(C)C
OUTPUT: 618

* * *

biological target: human cathepsin V (Homo sapiens); construct: purchased Calbiochem 219467; experiment: Selectivity assay, cathepsin V; format: biochemical; details: Cathepsin V; no preincubation; 90 min; read-out: IC50 @ 90 min
readoutLabel: pIC50
Would you please state pIC50, meaning minus log10 of the concentration in mol/L, as a bare number?

INPUT: Fill in the recorded pIC50 for this compound, with human cathepsin V (Homo sapiens) as test system: CCc1ccccc1NC(=O)CSC(=O)NNC(=O)[C@H](Cc1c[nH]c2ccccc12)NC(=O)OC(C)(C)C [Compound No. 1]
OUTPUT: 6.24

* * *

biological target: human liver cathepsin L (Homo sapiens, UniProt P07711); construct: 8.7 ng/mL human liver cathepsin L (Calbiochem 219402); purchased Calbiochem 219402; host or cells: human liver; experiment: Cathepsin L assay, IC50 determination; type: biochemical; details: Table 1; read-out: IC50 Cat L
readoutLabel: pIC50
Would you please state pIC50, meaning minus log10 of the concentration in mol/L, as a bare number?

structureSmilesString	pIC50
CCc1ccccc1NC(=O)CSC(=O)NNC(=O)[C@H](Cc1c[nH]c2ccccc12)NC(=O)OC(C)(C)C	7.25
CSCC[C@H](NC(=O)OC(C)(C)C)C(=O)NNC(=O)SCC(=O)NCCc1c[nH]c2ccccc12	6.48
CC(C)(C)OC(=O)N[C@@H](COCc1ccccc1)C(=O)NNC(=O)SCC(=O)N1CCc2ccccc2C1	6.43

INPUT: Can you share its pIC50? I mean this compound: CC(C)(C)OC(=O)N[C@@H](COCc1ccccc1)C(=O)NNC(=O)SCC(=O)Nc1ccccc1[N+](=O)[O-]
OUTPUT: 6.15
